// data source = patent US8563714B2

Molecular target: human FPRL2 (Homo sapiens, UniProt P25089)
Sequence (P25089 whole entry): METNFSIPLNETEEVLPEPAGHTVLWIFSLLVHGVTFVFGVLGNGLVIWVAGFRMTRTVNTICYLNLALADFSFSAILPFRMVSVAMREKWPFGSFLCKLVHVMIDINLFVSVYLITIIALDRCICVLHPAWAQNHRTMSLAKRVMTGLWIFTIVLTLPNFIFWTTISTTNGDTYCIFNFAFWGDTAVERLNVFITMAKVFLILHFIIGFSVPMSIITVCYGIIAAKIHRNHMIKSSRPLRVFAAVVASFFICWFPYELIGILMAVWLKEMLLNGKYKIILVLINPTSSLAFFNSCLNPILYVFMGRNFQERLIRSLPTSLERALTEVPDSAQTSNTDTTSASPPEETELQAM
Test: Intracellular calcium measurements (FLIPR), agonistic activity in HEK293-hFPRL2-Gα16 cells
Conditions: Fluo-4 calcium FLIPR, normalized to GLY14-Humanin 100 nM
pEC50: −log10 of the molar value.
metric: pEC50

1. O=C(Nc1ccc(Br)cc1)C1C(C(=O)NC2CCC(CN3CCCC3)CC2)C2C=CC1C21CC1 (single isomer, unassigned) [Example 222]; 6.40
2. O=C(NCC1CCNCC1)[C@H]1[C@H](C(=O)Nc2ccc(Br)cc2)[C@@H]2C=C[C@H]1C21CC1 (racemic); 5.59
3. CN1CCN(CCCCNC(=O)[C@H]2[C@H](C(=O)Nc3ccc(Br)cc3)[C@@H]3C=C[C@H]2C32CC2)CC1; 7.80

###

Biological target: human ALX receptor (Homo sapiens, UniProt P25090)
Sequence (P25090 whole entry): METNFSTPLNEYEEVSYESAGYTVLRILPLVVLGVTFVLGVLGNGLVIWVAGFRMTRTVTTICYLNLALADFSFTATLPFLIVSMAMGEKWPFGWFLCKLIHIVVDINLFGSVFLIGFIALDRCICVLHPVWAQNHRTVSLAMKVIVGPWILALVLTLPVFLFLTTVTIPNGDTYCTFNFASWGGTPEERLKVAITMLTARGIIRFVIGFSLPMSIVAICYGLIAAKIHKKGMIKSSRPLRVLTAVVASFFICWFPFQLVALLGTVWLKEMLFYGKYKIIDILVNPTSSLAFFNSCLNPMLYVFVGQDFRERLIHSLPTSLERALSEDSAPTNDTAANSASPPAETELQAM
Assay: Intracellular calcium measurements (FLIPR), agonistic activity in HEK293-hALXR-Gα16 cells
Settings: Fluo-4 calcium FLIPR, normalized to WKYMVm 10 nM
pEC50: −log10 of the molar value.
metric: pEC50

1. Cc1nc(CCNC(=O)[C@H]2[C@H](C(=O)Nc3ccc(Br)cc3)[C@@H]3C=C[C@H]2C32CC2)[nH]c1C (relative stereo); 7.72
2. O=C(N[C@H]1CC[C@H](O)CC1)[C@H]1[C@H](C(=O)Nc2ncc(Br)s2)[C@@H]2CC[C@H]1C21CC1; 7.16
3. Cc1ccc(CNC(=O)[C@H]2[C@H](C(=O)NCCCCN3CCCC3)[C@H]3C=C[C@@H]2C32CC2)o1 (racemic); 6.25
4. CC(C)(C)OC(=O)NCCCCCNC(=O)[C@H]1[C@H](C(=O)Nc2ccc(Br)cc2)[C@@H]2C=C[C@H]1C21CC1 (racemic); 7.57
5. NCC1CCC(NC(=O)C2C(C(=O)Nc3ccc(Br)cc3)C3C=CC2C32CC2)CC1 (single isomer, unassigned) [Example 420]; 9.89

###

Here the recorded pEC50 is given for each entry.
Target: human FPRL2 (Homo sapiens, UniProt P25089)
Test: Intracellular calcium measurements (FLIPR), agonistic activity in HEK293-hFPRL2-Gα16 cells
Conditions: Fluo-4 calcium FLIPR, normalized to GLY14-Humanin 100 nM
pEC50: −log10 of the molar value.
metric: pEC50

1. COC(=O)CCNC(=O)[C@H]1[C@H](C(=O)Nc2ccc(Br)cc2)[C@@H]2C=C[C@H]1C21CC1 (racemic) [Example 60]; 5.83
2. NC(=O)C1CCCCC1NC(=O)C1C(C(=O)Nc2ccc(Br)cc2)C2C=CC1C21CC1 (mixture of isomers) [Example 81]; 5.06
3. Cc1nc(CCNC(=O)C2C(C(=O)Nc3ccc(Br)cc3)C3CCC2C32CC2)[nH]c1C (stereo not shown) [Example 112]; 7.24
4. O=C(NCCCCN1CCCC1)[C@H]1[C@H](C(=O)NCCc2ccccn2)[C@@H]2C=C[C@H]1C21CC1 (racemic) [Example 343]; 6.05
5. CC(C)CNC(=O)C1C(C(=O)Nc2ncc(Br)s2)C2C=CC1C21CC1 (stereo not shown) [Example 245]; 5.08
6. Cc1ccc(NC(=O)[C@H]2[C@H](C(=O)NCCCCN3CCCC3)[C@H]3C=C[C@@H]2C32CC2)nc1 (racemic) [Example 121]; 6.34
7. Cc1nc2cc(NC(=O)[C@H]3[C@H](C(=O)NCCCCN4CCCC4)[C@H]4C=C[C@@H]3C43CC3)ccc2s1 (racemic) [Example 138]; 6.48
8. CN1CCN(CCCNC(=O)[C@H]2[C@H](C(=O)Nc3ccc(Br)cc3)[C@@H]3CC[C@H]2C32CC2)CC1 (racemic) [Example 111]; 7.15
9. O=C(NCCCCCN1CCCC1)[C@H]1[C@H](C(=O)Nc2ccc(Br)cc2)[C@@H]2C=C[C@H]1C21CC1 [Example 221]; 7.39
10. CCN1CCC(C(=O)NC[C@H]2[C@H](C(=O)Nc3ccc(Br)cc3)[C@@H]3C=C[C@H]2C32CC2)CC1 (racemic) [Example 173]; 5.74
11. CC(=O)CCCCNC(=O)[C@H]1[C@H](C(=O)NCCCCN2CCCC2)[C@H]2C=C[C@@H]1C21CC1 (racemic) [Example 127]; 5.56
12. CCOCCCNC(=O)[C@H]1[C@H](C(=O)NCc2ccc(Br)cc2)[C@@H]2C=C[C@H]1C21CC1 (racemic) [Example 263]; 5.35
13. O=C(NCCCCN1CCCC1)[C@H]1[C@H](C(=O)Nc2nc(-c3ccccc3)ns2)[C@@H]2C=C[C@H]1C21CC1 (racemic) [Example 153]; 7.04
14. CCN(CC)CCCC(C)NC(=O)C1C(C(=O)Nc2ccc(Br)cc2)C2C=CC1C21CC1 (mixture of isomers) [Example 25]; 6.44
15. O=C(NCCCCN1CCCC1)[C@H]1[C@H](C(=O)NCc2cc(F)cc(C(F)(F)F)c2)[C@@H]2C=C[C@H]1C21CC1 (racemic) [Example 362]; 6.51
16. CC(=O)c1csc(CNC(=O)[C@H]2[C@H](C(=O)NCCCN3CCCC3)[C@H]3C=C[C@@H]2C32CC2)n1 (racemic) [Example 264]; 6.08
17. O=C(Cc1ccccc1Cl)NC[C@H]1[C@H](C(=O)Nc2ccc(Br)cc2)[C@@H]2C=C[C@H]1C21CC1 (racemic) [Example 162]; 5.76
18. O=C(NCCCCN1CCCC1)[C@H]1[C@H](C(=O)NCc2ccc(Br)c(F)c2F)[C@@H]2C=C[C@H]1C21CC1 [Example 327]; 7.57
19. O=C(NCCCCN1CCCC1)[C@H]1[C@H](C(=O)Nc2ccc(Br)c(F)c2F)[C@@H]2C=C[C@H]1C21CC1 [Example 316]; 6.91
20. O=C(NCCCCN1CCCC1)[C@H]1[C@H](C(=O)Nc2nc(-c3ccc(Cl)cc3)cs2)[C@@H]2C=C[C@H]1C21CC1 (racemic) [Example 150]; 6.96
21. O=C(NCCO)[C@H]1[C@H](C(=O)Nc2ccc(Br)cc2)[C@@H]2C=C[C@H]1C21CC1 (racemic) [Example 34]; 4.79
22. NS(=O)(=O)c1ccc(CCNC(=O)[C@H]2[C@H](C(=O)Nc3ccc(Br)cc3)[C@@H]3C=C[C@H]2C32CC2)cc1 (racemic) [Example 61]; 5.64
23. O=C(NCCCO)[C@H]1[C@H](C(=O)Nc2ncc(Br)s2)[C@@H]2CC[C@H]1C21CC1 [Example 404]; 5.00
24. CN1CCN(CCCNC(=O)[C@H]2[C@H](C(=O)Nc3ccc(Br)cc3)[C@@H]3C=C[C@H]2C32CC2)CC1 (racemic) [Example 43]; 6.03
